# IC50 listing for each entry below
system_name: Abl kinase (Seq. ID no. 1) (Homo sapiens, UniProt P00519)
Construct: His6 with TEV cleavage site ([…] leader) (N)
protocol_description: Abl kinase (u-Abl) spectrophotometric coupled kinase assay
condition_summary: unphosphorylated-Abl kinase; 2 h preincubation, ATP 500 μM

smiles_code: CNC(=O)c1cc(Oc2ccc(NC(=O)Nc3cc(C(C)(C)C)nn3-c3ccc4ncccc4c3)cc2C)ccn1
IC50: 0.7 nM
//
smiles_code: CNC(=O)c1cc(Oc2ccc(NC(=O)Nc3cc(C(C)(C)C)nn3-c3ccc4[nH]ncc4c3)c(F)c2)ccn1
IC50: 0.7 nM
//
smiles_code: CC(C)c1cc(NC(=O)Nc2ccc(Oc3ccnc(C(N)=O)c3)cc2F)n(-c2ccc3ncccc3c2)n1
IC50: 1 nM

---

system_name: Abl(T315I) (Seq. ID no. 2) kinase (Homo sapiens, UniProt P00519, T315I)
Construct: His6 with TEV cleavage site ([…] leader) (N); purchased decode Genetics
Sequence (P00519 with tags, fused parts or gaps T315I): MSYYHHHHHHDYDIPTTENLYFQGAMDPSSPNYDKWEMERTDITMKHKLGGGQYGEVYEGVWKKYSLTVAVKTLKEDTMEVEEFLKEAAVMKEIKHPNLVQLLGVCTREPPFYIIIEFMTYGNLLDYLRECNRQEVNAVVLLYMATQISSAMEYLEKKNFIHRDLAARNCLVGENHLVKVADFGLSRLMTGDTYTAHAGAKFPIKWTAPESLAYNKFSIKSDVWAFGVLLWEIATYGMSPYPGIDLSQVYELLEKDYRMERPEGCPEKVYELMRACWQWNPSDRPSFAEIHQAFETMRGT
protocol_description: Abl(T315I) kinase spectrophotometric coupled kinase assay
Format: biochemical
condition_summary: T315I mutant Abl kinase; 2 h preincubation, ATP 500 μM

compound: CC(C)c1cc(NC(=O)Nc2ccc(Oc3ccnc(C(N)=O)c3)cc2F)n(-c2ccc3ncccc3c2)n1 [Example 15]
IC50 [nM]: 56
//
compound: CNC(=O)c1cc(Oc2ccc(NC(=O)Nc3cc(C(C)(C)C)nn3-c3ccc4[nH]ncc4c3)c(F)c2)ccn1 [Example 4]
IC50 [nM]: 12
//
compound: CNC(=O)c1cc(Oc2ccc(NC(=O)Nc3cc(C(C)(C)C)nn3-c3ccc4ncccc4c3)cc2C)ccn1 [Example 5]
IC50 [nM]: 250
